Entry source: patent US20250360143A1

- testedSystem: hP2X3R (Homo sapiens, UniProt P56373)
- Construct: expressed in transfected cells; host or cells: CHO-K1
- experimentSummary: cell-based
- Format: cell-based
endpoint: hP2X3R % inhib. (%)
Numbers only, in %.

Below, 2 compounds whose answers are already recorded.
compound	hP2X3R % inhib., %
CCN(CC)CC.Cc1ccc2c(Br)cc3c(c2c1)NC(=O)CC(=O)N3c1cccc(-c2noc(=S)[nH]2)c1 [Compound 21e]	17
CCN(CC)CC.[N-]=[N+]=NCc1ccc2c(Br)cc3c(c2c1)NC(=O)CC(=O)N3c1cccc(-c2noc(=S)[nH]2)c1 [Compound 21h]	15

QUERY: Any idea what hP2X3R % inhib. was measured for CCN(CC)CC.NCc1ccc2ccc3c(c2c1)NC(=O)CC(=O)N3c1cccc(-c2noc(=S)[nH]2)c1 [Compound 21q] ?
RESULT: 9

###

- testedSystem: hP2X4R (Homo sapiens)
- Construct: expressed in transfected cells; host or cells: HEK-293
- experimentSummary: cell-based
- Type: cell-based
I'd appreciate it if you could supply IC50 values for the items below.
Numbers only, in µM.

compound	testedSystem	unitSpec	IC50
CCN(CC)CC.Cc1ccc2c(Br)cc3c(c2c1)NC(=O)CC(=O)N3c1cccc(-c2noc(=S)[nH]2)c1 [Compound 21e]	hP2X4R (Homo sapiens)	µM	11.8
CCN(CC)CC.[N-]=[N+]=NCc1ccc2c3c(ccc2c1)N(c1cccc(-c2noc(=S)[nH]2)c1)C(=O)CC(=O)N3 [Compound 21j]	hP2X4R (Homo sapiens)	µM	21.3

QUERY: Request the reported IC50 associated with CCN(CC)CC.O=C1CC(=O)N(c2cccc(-c3noc(=S)[nH]3)c2)c2cc(-c3ccccc3)c3ccccc3c2N1
RESULT: 20.7

###

- testedSystem: hP2X3R (Homo sapiens, UniProt P56373)
- Construct: expressed in transfected cells; host or cells: CHO-K1
- experimentSummary: cell-based
- Assay type: cell-based
endpoint: hP2X3R % inhib. (%)
Numbers only, in %.

Record excerpt, results attached:
compound	unitSpec	hP2X3R % inhib.
CCN(CC)CC.[N-]=[N+]=NCc1ccc2ccc3c(c2c1)NC(=O)CC(=O)N3c1cccc(-c2noc(=S)[nH]2)c1 [Compound 21g]	%	13
CCN(CC)CC.[N-]=[N+]=NCc1ccc2c3c(ccc2c1)N(c1cccc(-c2noc(=S)[nH]2)c1)C(=O)CC(=O)N3 [Compound 21j]	%	0

QUERY: API: value(readout= hP2X3R % inhib., system= hP2X3R (Homo sapiens, UniProt P56373), query= CCN(CC)CC.O=C1CC(=O)N(c2cccc(-c3noc(=S)[nH]3)c2)c2cc(-c3ccccc3)c3ccccc3c2N1 )
RESULT: 11

###

- testedSystem: hP2X4R (Homo sapiens, UniProt Q99571)
- Construct: expressed in transfected cells; host or cells: HEK-293
- experimentSummary: cell-based
- Format: cell-based
- recordedConditions: agonist CTP 10 μM (~EC80)
endpoint: IC50 (µM)
One number for each entry, in µM.

Please review the following examples before continuing.
compound	readoutNumber
O=C1CC(=O)N(c2cc(-c3noc(=S)[nH]3)ccn2)c2ccc3ccccc3c2N1 [Compound 21s]	13.5
O=C1CC(=O)N(c2cccc(-c3noc(=S)[nH]3)n2)c2ccc3ccccc3c2N1 [Compound 21v]	6.48
O=C1CC(=O)N(c2cncc(-c3noc(=S)[nH]3)c2)c2ccc3ccccc3c2N1 [Compound 21t]	14.6

Dear colleague, could you send me IC50 for each of the items below? Thanks.
1. CCc1cc2c(c3ccccc13)NC(=O)CC(=O)N2c1cccc(-c2noc(=S)[nH]2)c1 [Compound 21p]
2. Cc1cc(-c2noc(=S)[nH]2)cc(N2C(=O)CC(=O)Nc3c2ccc2ccccc32)c1 [Compound 21r]

RESULT:
[5.13, 14]

###

- testedSystem: hP2X3R (Homo sapiens, UniProt P56373)
- Construct: expressed in transfected cells; host or cells: CHO-K1
- Sequence (P56373 1-397): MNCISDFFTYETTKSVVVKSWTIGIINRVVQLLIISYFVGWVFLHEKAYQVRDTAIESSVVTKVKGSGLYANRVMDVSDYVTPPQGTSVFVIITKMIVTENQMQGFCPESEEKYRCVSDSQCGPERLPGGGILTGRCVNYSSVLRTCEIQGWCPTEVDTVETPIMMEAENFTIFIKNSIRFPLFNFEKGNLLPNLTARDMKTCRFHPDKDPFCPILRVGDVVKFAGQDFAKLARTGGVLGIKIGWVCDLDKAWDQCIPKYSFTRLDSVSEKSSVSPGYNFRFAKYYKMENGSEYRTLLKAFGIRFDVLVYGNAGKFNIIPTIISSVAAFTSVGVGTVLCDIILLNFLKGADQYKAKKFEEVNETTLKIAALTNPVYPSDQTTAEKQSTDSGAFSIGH
- experimentSummary: cell-based
- Assay type: cell-based
- recordedConditions: CHO-K1; percent inhibition at 30 μM; agonist α,β-MeATP 1.0 μM; read-out: hP2X3R % inhib.
endpoint: inhibition at 30 µM (%)
Answers are plain numbers, in %.

molecule	readoutNumber
O=C1CC(=O)N(c2cc(-c3noc(=S)[nH]3)ccn2)c2ccc3ccccc3c2N1 [Compound 21s]	18
Cc1cc(-c2noc(=S)[nH]2)cc(N2C(=O)CC(=O)Nc3c2ccc2ccccc32)c1 [Compound 21r]	12
O=C1CC(=O)N(c2cncc(-c3noc(=S)[nH]3)c2)c2ccc3ccccc3c2N1 [Compound 21t]	6
O=C1CC(=O)N(c2cccc(-c3noc(=S)[nH]3)n2)c2ccc3ccccc3c2N1 [Compound 21v]	17
CCCCC#Cc1cc2c(c3ccccc13)NC(=O)CC(=O)N2c1cccc(-c2noc(=S)[nH]2)c1 [Compound 21o]	18
O=C1CC(=O)N(c2cccc(-c3noc(=S)[nH]3)c2)c2cc(C#Cc3ccccc3)c3ccccc3c2N1 [Compound 21m]	7

Need inhibition at 30 µM for each of these molecules.
1. CCc1cc2c(c3ccccc13)NC(=O)CC(=O)N2c1cccc(-c2noc(=S)[nH]2)c1 [Compound 21p]
2. O=C1CC(=O)N(c2cccc(-c3noc(=S)[nH]3)c2)c2cc(C#Cc3cccnc3)c3ccccc3c2N1 [Compound 21n]

RESULT:
1: 6; 2: 9

###

For each of the compounds below, state its hP2X1R % inhib..
- testedSystem: hP2X1R (Homo sapiens, UniProt P51575)
- Construct: expressed in transfected cells; host or cells: CHO-K1
- Sequence (P51575 whole entry): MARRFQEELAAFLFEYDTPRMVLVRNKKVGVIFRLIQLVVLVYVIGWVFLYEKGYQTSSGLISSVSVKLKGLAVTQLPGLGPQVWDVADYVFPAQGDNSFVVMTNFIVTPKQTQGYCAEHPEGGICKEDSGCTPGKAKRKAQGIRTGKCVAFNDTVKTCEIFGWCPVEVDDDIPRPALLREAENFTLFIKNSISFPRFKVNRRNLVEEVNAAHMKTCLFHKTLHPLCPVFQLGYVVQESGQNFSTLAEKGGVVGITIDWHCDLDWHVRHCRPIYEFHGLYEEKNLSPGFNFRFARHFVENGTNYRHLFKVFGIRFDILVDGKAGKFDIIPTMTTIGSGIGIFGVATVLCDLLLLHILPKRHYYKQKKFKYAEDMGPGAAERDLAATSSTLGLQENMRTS
- experimentSummary: cell-based
Answers are plain numbers, in %.

Use the examples below as a reference point.
compound	unitSpec	hP2X1R % inhib.
CCN(CC)CC.Cc1ccc2c(Br)cc3c(c2c1)NC(=O)CC(=O)N3c1cccc(-c2noc(=S)[nH]2)c1 [Compound 21e]	%	−2
CCN(CC)CC.[N-]=[N+]=NCc1ccc2c(Br)cc3c(c2c1)NC(=O)CC(=O)N3c1cccc(-c2noc(=S)[nH]2)c1 [Compound 21h]	%	−13

Give one value of hP2X1R % inhib. per listed compound.
1. CCN(CC)CC.[N-]=[N+]=NCc1ccc2ccc3c(c2c1)NC(=O)CC(=O)N3c1cccc(-c2noc(=S)[nH]2)c1 [Compound 21g]
2. CCN(CC)CC.O=C1CC(=O)N(c2cccc(-c3noc(=S)[nH]3)c2)c2cc(-c3ccccc3)c3ccccc3c2N1
3. CCN(CC)CC.NCc1ccc2ccc3c(c2c1)NC(=O)CC(=O)N3c1cccc(-c2noc(=S)[nH]2)c1 [Compound 21q]
4. CCN(CC)CC.[N-]=[N+]=NCc1ccc2c3c(ccc2c1)N(c1cccc(-c2noc(=S)[nH]2)c1)C(=O)CC(=O)N3 [Compound 21j]

RESULT:
1: 8; 2: 14; 3: 8; 4: −5

###

- testedSystem: hP2X4R (Homo sapiens)
- Construct: expressed in transfected cells; host or cells: HEK-293
- Sequence (Q99571 1-388): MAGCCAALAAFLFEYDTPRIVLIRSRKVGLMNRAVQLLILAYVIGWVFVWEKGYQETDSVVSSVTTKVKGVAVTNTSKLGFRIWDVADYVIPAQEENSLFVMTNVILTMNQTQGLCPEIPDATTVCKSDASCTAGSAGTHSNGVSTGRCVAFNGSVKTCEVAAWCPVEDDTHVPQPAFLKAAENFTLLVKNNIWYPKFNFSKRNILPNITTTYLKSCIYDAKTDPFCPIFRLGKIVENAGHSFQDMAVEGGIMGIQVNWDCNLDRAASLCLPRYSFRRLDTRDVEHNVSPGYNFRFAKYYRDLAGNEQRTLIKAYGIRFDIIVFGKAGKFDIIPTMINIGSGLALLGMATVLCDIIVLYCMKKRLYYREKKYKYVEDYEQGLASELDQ
- experimentSummary: cell-based
- Assay type: cell-based
endpoint: hP2X4R inhibitory activity relative to 22a, in words

compound	testedSystem	result
CCN(CC)CC.[N-]=[N+]=NCc1ccc2c(Br)cc3c(c2c1)NC(=O)CC(=O)N3c1cccc(-c2noc(=S)[nH]2)c1 [Compound 21h]	hP2X4R (Homo sapiens)	inactive
O=C1CC(=O)N(c2cncc(-c3noc(=S)[nH]3)c2)c2ccc3ccccc3c2N1 [Compound 21t]	hP2X4R (Homo sapiens)	reduce
O=C1CC(=O)N(c2cc(-c3noc(=S)[nH]3)ccn2)c2ccc3ccccc3c2N1 [Compound 21s]	hP2X4R (Homo sapiens)	reduce
CC(=O)NCc1ccc2ccc3c(c2c1)NC(=O)CC(=O)N3c1cccc(-c2noc(=S)[nH]2)c1.CCN(CC)CC [Compound 21i]	hP2X4R (Homo sapiens)	inactive

Below: the item to evaluate.
QUERY: Entry O=C1CC(=O)N(c2cccc(-c3noc(=S)[nH]3)n2)c2ccc3ccccc3c2N1 [Compound 21v] has what hP2X4R inhibitory activity relative to 22a, in words?
RESULT: reduce
